Molecular target: T1, DFNB31_3, Q9P202
T1 sequence (Q9P202 811-907, limits assumed, looked up): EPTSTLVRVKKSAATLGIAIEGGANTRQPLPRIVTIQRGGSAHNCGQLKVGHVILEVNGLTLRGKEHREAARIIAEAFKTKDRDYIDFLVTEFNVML
Test: holdup assay
Parameters: key: below the threshold = too weak to quantify, mostly under pKd 3.1 to 4
Conditions: plain residues with an end cap or a label only (N-terminal biotin on a linker: ado-ado)
endpointName: pKd

| binder | experimentalValue |
| --- | --- |
| TRKRSGEAAV [PFKM, P08237] | below the threshold |
| GEDRSPPTAL [MKNK1, Q9BUB5] | below the threshold |
| DTKNYKQTSV [CRIPT, Q9P021] | below the threshold |
